target: acetylcholinesterase (Homo sapiens, UniProt P22303); experiment: biochemical
Sequence (P22303 32-614, species assumed): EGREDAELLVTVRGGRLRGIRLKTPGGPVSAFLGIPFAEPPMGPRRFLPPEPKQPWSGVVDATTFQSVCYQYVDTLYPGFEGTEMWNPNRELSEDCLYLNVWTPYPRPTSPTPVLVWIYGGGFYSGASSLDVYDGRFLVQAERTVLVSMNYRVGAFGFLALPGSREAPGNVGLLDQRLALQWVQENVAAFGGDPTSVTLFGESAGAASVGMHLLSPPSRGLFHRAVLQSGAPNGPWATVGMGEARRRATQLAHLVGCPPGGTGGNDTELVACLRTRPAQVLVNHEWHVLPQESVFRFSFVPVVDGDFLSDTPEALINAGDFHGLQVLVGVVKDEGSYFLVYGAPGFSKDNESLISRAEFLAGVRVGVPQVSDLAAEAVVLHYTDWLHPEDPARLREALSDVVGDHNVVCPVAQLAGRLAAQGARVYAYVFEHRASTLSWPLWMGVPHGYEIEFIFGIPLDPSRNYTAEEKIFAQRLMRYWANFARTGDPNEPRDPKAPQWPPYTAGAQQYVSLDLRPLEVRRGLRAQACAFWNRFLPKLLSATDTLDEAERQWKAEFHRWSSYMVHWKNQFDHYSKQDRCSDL
pIC50: −log10 of the molar value.
QUANTITY: pIC50

- MOLECULE SMILES: "COc1ccc2c3c1O[C@H]1C[C@@H](O)C=C[C@@]31CCN(CCCCN1CCCCC1)C2"
  pIC50: 7.44
- MOLECULE SMILES: "COc1cc(Br)c2c3c1O[C@H]1C[C@@H](O)C=C[C@@]31CCN(CCN1CCOCC1)C2"
  pIC50: "< 4.00"
- MOLECULE SMILES: "COc1cc(Br)c2c3c1O[C@H]1C[C@H](O)C=C[C@@]31CCNC2"
  pIC50: "< 4.00"

Request the reported pIC50 associated with "CCN1CC[C@]23C=C[C@H](O)C[C@H]2Oc2c(OC)ccc(c23)C1"
< 4.00

Request the reported pIC50 associated with "COc1cc(Br)c2c3c1O[C@@H]1C[C@@H](O)C=C[C@]31CCNC2"
< 4.00

---

target: butyrylcholinesterase (Homo sapiens, UniProt P06276); assay: biochemical; conditions: read-out: Butyrylcholinesterase IC-50
Sequence (P06276 29-602): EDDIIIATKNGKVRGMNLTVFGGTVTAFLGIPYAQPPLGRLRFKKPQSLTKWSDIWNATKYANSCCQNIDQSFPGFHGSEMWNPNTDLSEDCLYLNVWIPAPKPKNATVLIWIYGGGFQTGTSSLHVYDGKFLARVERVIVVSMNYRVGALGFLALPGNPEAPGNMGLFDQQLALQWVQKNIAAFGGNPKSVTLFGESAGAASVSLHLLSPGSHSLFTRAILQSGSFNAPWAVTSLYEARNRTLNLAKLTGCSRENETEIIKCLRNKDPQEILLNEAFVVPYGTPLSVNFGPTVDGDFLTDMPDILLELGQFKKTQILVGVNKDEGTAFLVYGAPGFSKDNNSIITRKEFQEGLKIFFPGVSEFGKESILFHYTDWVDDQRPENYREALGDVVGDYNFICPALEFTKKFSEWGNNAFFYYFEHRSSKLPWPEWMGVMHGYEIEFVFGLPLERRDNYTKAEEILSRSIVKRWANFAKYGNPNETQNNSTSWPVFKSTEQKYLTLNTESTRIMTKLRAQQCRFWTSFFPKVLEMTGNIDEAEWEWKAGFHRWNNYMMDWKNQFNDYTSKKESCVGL
Counter-ions that a name gives are not always drawn.
QUANTITY: pIC50
Note on pIC50: it is the negative log10 of concentration, concentration in mol/L.

- COMPOUND: "COc1ccc2c3c1O[C@H]1C[C@@H](O)C=C[C@@]31CCN(CC(N)=O)C2"
  QUANTITY: "pIC50"
  REPORTED VALUE: 4.11
- COMPOUND: "COc1cc(Br)c2c3c1O[C@@H]1C[C@H](O)C=C[C@]31CCN(Cc1ccccc1)C2"
  QUANTITY: "pIC50"
  REPORTED VALUE: 4.72
- COMPOUND: "COc1ccc2c3c1O[C@H]1C[C@@H](O)C=C[C@@]31CCN(C(=O)CN1CCOCC1)C2"
  QUANTITY: "pIC50"
  REPORTED VALUE: 5.42
- COMPOUND: "CCN(CC)CC(=O)N1CC[C@@]23C=C[C@H](O)C[C@@H]2Oc2c(OC)ccc(c23)C1"
  QUANTITY: "pIC50"
  REPORTED VALUE: 4.40
- COMPOUND: "COc1ccc2c3c1O[C@H]1C[C@@H](O)C=C[C@@]31CCN(C(=O)c1ccc(Br)cc1)C2"
  QUANTITY: "pIC50"
  REPORTED VALUE: 4.52

Request the reported pIC50 associated with COc1ccc2c3c1O[C@H]1C[C@@H](O)C=C[C@@]31CCN(CC(C)C(=O)c1ccc(C)cc1)C2 (stereo partly drawn) [Example 35, hydrochloride]
6.40

Request the reported pIC50 associated with "COc1ccc2c3c1O[C@H]1C[C@@H](O)C=C[C@@]31CCN(CCc1ccccc1Nc1c(Cl)cccc1Cl)C2"
5.89

---

target: UniProt:P06276; test: biochemical; settings: read-out: Butyrylcholinesterase IC-50
Entries and their IC50 values follow.

As a guide, the following entries are already answered.
- MOLECULE: "C#CCN1CC[C@@]23C=C[C@@H](O)C[C@@H]2Oc2c(OC)ccc(c23)C1 [Example 18]"
  TGT: "UniProt:P06276"
  IC50: "> 100 µM"
- MOLECULE: "COc1cc(Br)c2c3c1O[C@@H]1C[C@H](O)C=C[C@]31CCN(C(=O)CN1CCN(C)CC1)C2 [Example 7]"
  TGT: "UniProt:P06276"
  IC50: "> 100 µM"
- MOLECULE: "COc1cc(Br)c2c3c1OC1C[C@H](O)C=C[C@]31CCN(CCN1CCOCC1)C2 (single isomer, unassigned) [Example 58]"
  TGT: "UniProt:P06276"
  IC50: "53 µM"

Then there is this molecule:
Request the reported IC50 associated with COc1ccc2c3c1O[C@H]1C[C@@H](O)C=C[C@@]31CCN(C(=O)c1ccccc1)C2 [Example 33]
> 100 µM
